These entries and their values trace back to the NIST ThermoML archive (doi:10.1016/j.fluid.2017.03.021).

Hi there, I'd appreciate the recorded molar heat capacity at constant pressure for every entry that follows.
Test: molar heat capacity at constant pressure
Conditions: 313.15 K; 101.33 kPa; Liquid; DSC
± gives the expanded uncertainty stated by the source.
Express the reported value numerically, then name its unit.

Query string: // lookup molar heat capacity at constant pressure for CCCC[n+]1ccn(C2CCCC2)c1.O=S(=O)([N-]S(=O)(=O)C(F)(F)F)C(F)(F)F
Result string: 663.07 ± 26 J/K/mol

Query string: // lookup molar heat capacity at constant pressure for CCCCn1cc[n+](C(CC)CC)c1.O=S(=O)([N-]S(=O)(=O)C(F)(F)F)C(F)(F)F
Result string: 707.88 ± 27 J/K/mol

Query string: // lookup molar heat capacity at constant pressure for CCCCC[n+]1ccn(CCCC)c1.O=S(=O)([N-]S(=O)(=O)C(F)(F)F)C(F)(F)F
Result string: 697.9 ± 27 J/K/mol

Query string: // lookup molar heat capacity at constant pressure for CCCCn1cc[n+](CCC(C)C)c1.O=S(=O)([N-]S(=O)(=O)C(F)(F)F)C(F)(F)F
Result string: 696.66 ± 27 J/K/mol

----------
Experiment: molar heat capacity at constant pressure
Conditions: 303.15 K; 101.33 kPa; Liquid; DSC
endpoint.name: molar heat capacity at constant pressure (J/K/mol)
Return type: number; implicit unit J/K/mol.

Query string: // lookup molar heat capacity at constant pressure for CCCCn1cc[n+](C(CC)CC)c1.O=S(=O)([N-]S(=O)(=O)C(F)(F)F)C(F)(F)F
Result string: 700.37

Query string: // lookup molar heat capacity at constant pressure for CCCCn1cc[n+](CCC(C)C)c1.O=S(=O)([N-]S(=O)(=O)C(F)(F)F)C(F)(F)F
Result string: 689.15

Query string: // lookup molar heat capacity at constant pressure for CCCC[n+]1ccn(C2CCCC2)c1.O=S(=O)([N-]S(=O)(=O)C(F)(F)F)C(F)(F)F
Result string: 655.4

Query string: // lookup molar heat capacity at constant pressure for CCCCC[n+]1ccn(CCCC)c1.O=S(=O)([N-]S(=O)(=O)C(F)(F)F)C(F)(F)F
Result string: 690.67

----------
Assay: molar heat capacity at constant pressure
Details: 317.15 K; 101.33 kPa; Liquid; DSC
endpoint.name: molar heat capacity at constant pressure (J/K/mol)
Return type: number; implicit unit J/K/mol.

Query string: // lookup molar heat capacity at constant pressure for CCCC[n+]1ccn(C2CCCC2)c1.O=S(=O)([N-]S(=O)(=O)C(F)(F)F)C(F)(F)F
Result string: 666.15

Query string: // lookup molar heat capacity at constant pressure for CCCCn1cc[n+](CCC(C)C)c1.O=S(=O)([N-]S(=O)(=O)C(F)(F)F)C(F)(F)F
Result string: 699.65

Query string: // lookup molar heat capacity at constant pressure for CCCCn1cc[n+](C(CC)CC)c1.O=S(=O)([N-]S(=O)(=O)C(F)(F)F)C(F)(F)F
Result string: 711.16

Query string: // lookup molar heat capacity at constant pressure for CCCCC[n+]1ccn(CCCC)c1.O=S(=O)([N-]S(=O)(=O)C(F)(F)F)C(F)(F)F
Result string: 700.84

----------
Hi there, I'd appreciate the recorded speed of sound for every entry that follows.
Conditions: 329.15 K; 101.33 kPa; Liquid; Sing-around technique in a fixed-path interferometer
Return type: number; implicit unit m/s.

Query string: // lookup speed of sound for CCCC[n+]1ccn(C2CCCC2)c1.O=S(=O)([N-]S(=O)(=O)C(F)(F)F)C(F)(F)F
Result string: 1198.5

Query string: // lookup speed of sound for CCCCC[n+]1ccn(CCCC)c1.O=S(=O)([N-]S(=O)(=O)C(F)(F)F)C(F)(F)F
Result string: 1144.4

Query string: // lookup speed of sound for CCCCn1cc[n+](CCC(C)C)c1.O=S(=O)([N-]S(=O)(=O)C(F)(F)F)C(F)(F)F
Result string: 1147.4

Query string: // lookup speed of sound for CCCCn1cc[n+](C(CC)CC)c1.O=S(=O)([N-]S(=O)(=O)C(F)(F)F)C(F)(F)F
Result string: 1142.3
